Property: scaled lipid accumulation score; scope: individual compounds
system: primary human hepatic stellate cells (donor 1); assay: scaled lipid accumulation score (0 = DMSO-like, 1 = nortriptyline-like); higher = stronger HSC inactivation (lipid re-accumulation), active = hit call of the paper; settings: library stock concentration: 2 mM; 48 h
In all, about 5,800 compounds went through this assay and about 620 (11%) showed activity. Many of the other results were omitted from the sample, so actives are more common in it than they were.

Completed entries (count: 5):
compound | systemName | resultValue
O=C1NCCc2[nH]c(-c3ccncc3)cc21 | primary human hepatic stellate cells (donor 1) | 0.125 (inactive)
COc1cc(N2CCN(C)CC2)ccc1Nc1ncc2c(n1)N(C)c1ccccc1C(=O)N2C | primary human hepatic stellate cells (donor 1) | 0.241 (inactive)
O=S(=O)(NCCNC/C=C/c1ccc(Br)cc1)c1cccc2cnccc12 | primary human hepatic stellate cells (donor 1) | 0.134 (inactive)
N#CCNC(=O)c1ccc(-c2ccnc(Nc3ccc(N4CCOCC4)cc3)n2)cc1 [Momelotinib (CYT387) (2 mM)] | primary human hepatic stellate cells (donor 1) | 0.858 (active)
C=CC(=O)N1CCC[C@@H](n2nc(-c3ccc(Oc4ccccc4)cc3)c3c(N)ncnc32)C1 | primary human hepatic stellate cells (donor 1) | 0.033 (inactive)

Sure, the documented scaled lipid accumulation score for `COc1cc(Nc2ncc(F)c(Nc3ccc4c(n3)NC(=O)C(C)(C)O4)n2)cc(OC)c1OC` is 0.159 (inactive)

get_value(item= `Cc1cc(C=C2C(=O)C=CC2=O)cc(C)c1O` , readout=scaled lipid accumulation score) returns 0.593 (inactive)

# scaled lipid accumulation score of COc1cc(Nc2ncc3c(n2)-c2ccc(Cl)cc2C(c2c(F)cccc2OC)=NC3)ccc1C(=O)O [Alisertib] = ≤ 0 (inactive)

Quick note, scaled lipid accumulation score for O=C1NC(=O)/C(=C\c2cccc(C(F)(F)F)c2)S1 [PIM12 kinase inhibitor V] landed at ≤ -0.001 (inactive)

Lab note: `O=C(O)CCNc1cc(N2CCc3ccccc3CC2)nc(-c2cccnc2)n1` gave scaled lipid accumulation score of ≤ 0 (inactive)

The recorded scaled lipid accumulation score for entry `c1ccc(-c2nn3c(c2-c2ccnc4cc(OCCN5CCOCC5)ccc24)CCC3)nc1` equals ≤ -0.001 (inactive)

So, `N#Cc1c(C2CCNCC2)cc(-c2c(O)cccc2OCC2CC2)nc1N` ? Its scaled lipid accumulation score was 0.483 (inactive)

Sure, the documented scaled lipid accumulation score for C=CC(=O)Nc1cccc(Nc2nc(Nc3ccc(OCCOC)cc3)ncc2F)c1 [Spebrutinib] is ≤ -0.001 (inactive)

The reported value for `COc1cc(N2CCC(N3CCN(C)CC3)CC2)ccc1Nc1ncnc(Nc2ccccc2S(=O)(=O)C(C)C)n1` in terms of scaled lipid accumulation score is 0.433 (inactive)
